TARGET_DESC: AxCT mask27 EGFR EH104 L068 version 1
OBSERVATION_TYPE: Percent cleavage (%)
Respond numerically; units are % and should not be typed.

[ask] Please supply the value of reported Percent cleavage for the item MMP-12 (protein) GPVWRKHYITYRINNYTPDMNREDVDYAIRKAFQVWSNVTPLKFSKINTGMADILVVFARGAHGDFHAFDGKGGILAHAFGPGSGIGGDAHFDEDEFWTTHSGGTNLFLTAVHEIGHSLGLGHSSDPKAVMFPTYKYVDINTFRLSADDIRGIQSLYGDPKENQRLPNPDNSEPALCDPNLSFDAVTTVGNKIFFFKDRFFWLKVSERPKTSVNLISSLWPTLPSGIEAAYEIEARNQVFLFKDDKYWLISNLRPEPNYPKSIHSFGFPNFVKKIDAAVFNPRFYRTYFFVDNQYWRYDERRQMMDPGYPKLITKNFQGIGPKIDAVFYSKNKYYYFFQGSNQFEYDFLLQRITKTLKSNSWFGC
[reply] 9

[ask] Please supply the value of reported Percent cleavage for the item MMP-1 (protein) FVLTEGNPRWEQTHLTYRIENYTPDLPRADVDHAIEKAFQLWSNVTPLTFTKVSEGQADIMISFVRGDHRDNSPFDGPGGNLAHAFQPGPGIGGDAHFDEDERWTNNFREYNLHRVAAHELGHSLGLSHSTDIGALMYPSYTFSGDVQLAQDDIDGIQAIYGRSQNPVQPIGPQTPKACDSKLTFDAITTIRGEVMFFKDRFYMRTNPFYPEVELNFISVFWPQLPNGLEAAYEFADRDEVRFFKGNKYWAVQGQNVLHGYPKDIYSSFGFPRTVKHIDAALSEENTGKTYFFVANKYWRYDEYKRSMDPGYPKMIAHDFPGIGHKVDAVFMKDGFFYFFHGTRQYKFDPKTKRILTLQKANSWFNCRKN
[reply] 0

[ask] Please supply the value of reported Percent cleavage for the item Matriptase (protein) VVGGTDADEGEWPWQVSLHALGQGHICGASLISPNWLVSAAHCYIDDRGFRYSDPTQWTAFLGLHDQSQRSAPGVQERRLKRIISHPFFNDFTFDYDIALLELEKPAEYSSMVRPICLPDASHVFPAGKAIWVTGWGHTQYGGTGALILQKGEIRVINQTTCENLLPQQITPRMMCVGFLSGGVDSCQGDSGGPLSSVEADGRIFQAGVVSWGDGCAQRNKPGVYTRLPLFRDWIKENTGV
[reply] 0

[ask] Please supply the value of reported Percent cleavage for the item MMP-7 (protein) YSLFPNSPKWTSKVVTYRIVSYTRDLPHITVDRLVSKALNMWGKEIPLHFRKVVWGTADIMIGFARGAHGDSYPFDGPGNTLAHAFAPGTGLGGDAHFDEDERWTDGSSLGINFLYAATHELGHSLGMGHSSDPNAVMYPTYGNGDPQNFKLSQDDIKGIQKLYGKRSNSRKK
[reply] 0

[ask] Please supply the value of reported Percent cleavage for the item Cathepsin G (protein) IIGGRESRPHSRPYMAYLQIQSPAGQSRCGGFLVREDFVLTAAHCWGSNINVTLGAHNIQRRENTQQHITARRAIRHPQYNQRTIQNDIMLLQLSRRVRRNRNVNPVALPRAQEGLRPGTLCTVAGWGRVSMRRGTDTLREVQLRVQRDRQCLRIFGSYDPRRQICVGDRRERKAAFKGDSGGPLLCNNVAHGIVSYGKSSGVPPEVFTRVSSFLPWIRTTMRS
[reply] 0

[ask] Please supply the value of reported Percent cleavage for the item Neutrophil Elastase (protein) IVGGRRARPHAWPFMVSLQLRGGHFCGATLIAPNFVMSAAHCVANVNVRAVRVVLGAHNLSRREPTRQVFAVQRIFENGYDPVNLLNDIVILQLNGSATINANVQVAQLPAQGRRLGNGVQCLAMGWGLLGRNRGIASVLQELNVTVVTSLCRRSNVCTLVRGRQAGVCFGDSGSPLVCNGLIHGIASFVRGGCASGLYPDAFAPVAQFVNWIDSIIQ
[reply] 19

These entries and their values trace back to patent US20240336909.
